B1: POU domain, class 3, transcription factor 3, residues 320 to 388; numbered along this chain, P20264 (parent)
chain: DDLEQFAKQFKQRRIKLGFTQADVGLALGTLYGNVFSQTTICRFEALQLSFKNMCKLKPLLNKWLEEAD

Variants of: B1
Assay: abundance fitness (aPCA) (normalised: wild type 0, dead -1); higher = more abundant; growth selection in yeast, the domain comes from the species named
Conditions: Homo sapiens
quantity: abundance fitness

sequence.data: DDLEQFAKQFKQRRIKLGFTQADVGTALGTLYGNVFSQTTICRFEALQLSFKNMCKLKPLLNKWLEEAD
assay.result: -0.515

sequence.data: DDLEQFAKQFKQRRIKLGFTQADVGLALGTLYGNVPSQTTICRFEALQLSFKNMCKLKPLLNKWLEEAD
assay.result: -0.043

sequence.data: DDLEQFAKQFKQRRIKLGFTQADVGLALGTLYGNVFSQKTICRFEALQLSFKNMCKLKPLLNKWLEEAD
assay.result: -0.006

sequence.data: DDLEQFAKQFKQRRIKLGFTQADVGLALGNLYGNVFSQTTICRFEALQLSFKNMCKLKPLLNKWLEEAD
assay.result: -0.348

sequence.data: DDLEQFAKQFKQRRIKLGFTQADVGLALGWLYGNVFSQTTICRFEALQLSFKNMCKLKPLLNKWLEEAD
assay.result: -0.421

All values here come from the Human Domainome abundance scans (Beltran et al. 2025).
